biological target: WDR5 (Homo sapiens (Human)); assay: Surface Plasmon Resonance (SPR) assay, KD and residence time; format: binding; settings: surface plasmon resonance (SPR) assay; read-out: WDR5 binding affinity (KD)
Each entry below carries its reported Kd.
Express it in nM; write the number only.

Known results for molecules:
molecule: C[C@@H]1CN(c2cc(F)c(C3=CCNCC3)cc2NC(=O)c2c[nH]c(=O)cc2C(F)(F)F)C[C@H](C)N1C
numeric.value: 7.18

molecule: C[C@@H]1CN(c2ncc(-c3cc(NC(=O)c4c[nH]c(=O)cc4C(F)(F)F)c(N4CCN(C)[C@@H](C)C4)cc3F)cn2)CCO1
numeric.value: 0.551

molecule: C[C@@H]1CN(c2ncc(-c3cc(NC(=O)c4c[nH]c(=O)cc4C(F)(F)F)c(N4C[C@@H](C)N(C)[C@H](C)C4)cc3F)cn2)C[C@H](C)O1 (stereo in doubt)
numeric.value: 19.9

Param readout= Kd; system= WDR5 (Homo sapiens (Human)); entry= CC1CN(c2cc(F)c(-c3cnc(N4C[C@@H](C)O[C@@H](C)C4)nc3)cc2NC(=O)c2c[nH]c(=O)cc2C(F)(F)F)CCN1C (stereo in doubt) ; returns value.
0.434

Param readout= Kd; system= WDR5 (Homo sapiens (Human)); entry= `C[C@@H]1CN(c2cc(F)c(C3=CCN(C(=O)CN(C)C)CC3)cc2NC(=O)c2c[nH]c(=O)cc2C(F)(F)F)C[C@H](C)N1C` ; returns value.
2.61

Param readout= Kd; system= WDR5 (Homo sapiens (Human)); entry= `C[C@@H]1CN(c2cc(F)c(C3=CCN(C(=O)N(C)C)CC3)cc2NC(=O)c2c[nH]c(=O)cc2C(F)(F)F)C[C@H](C)N1C` ; returns value.
1.01

====

biological target: WDR5 (Homo sapiens (Human), UniProt P61964); test: Surface Plasmon Resonance (SPR) assay, KD and residence time; format: binding; conditions: surface plasmon resonance (SPR); read-out: WDR5 binding affinity (KD)
quantity: pKd
# pKd: negative log10 of molar concentration; output just the value

Known results for molecules:
molecule: C[C@@H]1CN(c2ccc(-c3cc(NC(=O)c4c[nH]c(=O)cc4C(F)F)c(N4CCN(C)[C@H](C)C4)cc3F)cn2)CCO1 (stereo in doubt) [Example 507]
pKd: 8.75

molecule: C[C@@H]1CN(c2cc(F)c(C3=CCCN(c4nc(C#N)cs4)C3)cc2NC(=O)c2c[nH]c(=O)cc2C(F)(F)F)C[C@H](C)N1C [Example 642]
pKd: 8.89

molecule: C[C@@H]1CN(c2cc(F)c(-c3ccc4c(c3)ncn4C)cc2NC(=O)c2c[nH]c(=O)cc2C(F)(F)F)C[C@H](C)N1C [Example 675]
pKd: 8.71

molecule: CCN(CC)[C@@H]1CCN(c2cc(F)c(-c3cnc(N4CCOCC4)nc3)cc2NC(=O)c2c[nH]c(=O)cc2C(F)(F)F)C1 [Example 419]
pKd: 8.27

molecule: CC1CN(c2ccc(-c3cc(NC(=O)c4cn(C)c(=O)cc4C(F)F)c(N4C[C@@H](C)N(C)[C@@H](C)C4)cc3F)cn2)CCO1 (stereo in doubt) [Example 517]
pKd: 8.22

Proceeding to the next molecule to report its pKd.
So what does the record say about pKd for CNC(=O)c1cc(-c2cc(NC(=O)c3c[nH]c(=O)cc3C(F)F)c(N3C[C@@H](C)N(C)[C@@H](C)C3)cc2F)ccc1F [Example 606] ?
8.73
